ASSAY TEXT: galactose survival enhancers in mitochondrial complex I cybrids – cell-based, galactose medium, ATP luminescence, primary screen (AID 1645843);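 note: positive z means more ATP and so rescue of galactose-driven cybrid death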
TEST SETTINGS: complex I mutant cybrid cells, 72 h
Calls of active or inactive are those of the source.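 Rule for the calls: active = z-score of at least 1.8 in each of two replicates, scored against plate mean and spread of sample wells; inactive = the rest.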
Your reply should match one of these outcome classes. Yes for active, No for inactive

CCn1ccnc1CN(C)C(=O)c1cc(-c2cnc(N)nc2)nc2cc(C)ccc12 : No
COC1C=CO[C@@]2(C)Oc3c(C)c(O)c4c(O)c(c5c(nc6cc(C)ccn65)c4c3C2=O)NC(=O)C(C)=CC=CC(C)C(O)C(C)C(O)C(C)C(OC(C)=O)C1C (stereo not given in full) : Yes

Exercise: // param item: Cc1ccn2cc(Cn3cnc4ccc(F)cc4c3=O)nc2c1 ; yields the recorded call
Key: No

Exercise: // param item: Cc1c(C(F)(F)F)nc(-c2ccc(CN(C)C)cc2)[nH]c1=O ; yields the recorded call
Key: No

Exercise: // param item: CCCCc1cc(=O)[nH]c(-c2ccc(CN(C)CCOC)cc2)n1 ; yields the recorded call
Key: No
